B1: WDFY1 (parent)
chain: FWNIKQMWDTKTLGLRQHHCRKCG

variants of: B1; assay: protein stability index of a GFP-peptide fusion (GPS, HEK-293T) (PSI 1-6); higher = more stable; details: c terminus: a fixed tail appended;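 note: lentivirally expressed fusions sorted by FACS into six bins by GFP to DsRed ratio, PSI derived from sequencing read proportions per bin multiplied by bin number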
readout.name: protein stability index
Hey, just send me the number, nothing else.

Task item: Indicate its recorded protein stability index; the variant in question is FWEIKQMWDTKTLGLRQHHCRKCG [N3E]
Reply: 2.05

Task item: Indicate its recorded protein stability index; the variant in question is FWQIKQMWDTKTLGLRQHHCRKCG [N3Q]
Reply: 1.96

Task item: Indicate its recorded protein stability index; the variant in question is FWNIHQMWDTKTLGLRQHHCRKCG [K5H]
Reply: 2.03

Task item: Indicate its recorded protein stability index; the variant in question is FWNIKQMWDTKTLGLRQHICRKCG [H19I]
Reply: 2

Task item: Indicate its recorded protein stability index; the variant in question is FWNIKQMWDTKTLGLRQHHCRQCG [K22Q]
Reply: 2.01

Task item: Indicate its recorded protein stability index; the variant in question is FWNIAQMWDTKTLGLRQHHCRKCG [K5A]
Reply: 1.97

Task item: Indicate its recorded protein stability index; the variant in question is FWNIKQMWDTKTLGLRQHHCRKCV [G24V]
Reply: 2.01

Task item: Indicate its recorded protein stability index; the variant in question is FWDIKQMWDTKTLGLRQHHCRKCG [N3D]
Reply: 2.02

Task item: Indicate its recorded protein stability index; the variant in question is FWNIKQMWDTKTGGLRQHHCRKCG [L13G]
Reply: 2.01
